Conditions: in methanol, 318.15 K
readout: solubility (mole fraction)
API note: the answer field is a bare number with no unit suffix.

Q: Look up solubility (mole fraction) of `CCOC(=O)C1=C(C)NC(C)=C(C(=O)OCC)C1` and report it.
Ans: 0.00315

###

Settings: in toluene, 278.15 K
readout: solubility (mole fraction)
API note: the answer field is a bare number with no unit suffix.

Q: Look up solubility (mole fraction) of `CCOC(=O)C1=C(C)NC(C)=C(C(=O)OCC)C1` and report it.
Ans: 0.00023

###

Settings: in 2-butanone, 303.35 K
readout: solubility (mole fraction)

Q: Look up solubility (mole fraction) of `CCOC(=O)C1=C(C)NC(C)=C(C(=O)OCC)C1` and report it.
Ans: 0.013
